System: brain
Assay: NGS fold enrichment of synthetic library (passage 3) in C57Bl/6 mice, first cross-species screen
Type: in vivo
Conditions: synthetic library passage 3, intravenous, RNA from brain of C57Bl/6 mice, NGS, relative to wild-type AAV9
endpoint: Fold enrichment over AAV9 in the brain of Mice (C57Bl/6) (fold)
Please reply with the bare figure in fold and do not write the unit itself.

>>> numericvalue("GFIFPKVSGQNQQT")
1.764
>>> numericvalue("GSGIGSHIPQNQQT")
0.822
>>> numericvalue("GSGQNQGLLSSPQT")
0.707
>>> numericvalue("GSRTYQVSGQNQQT")
0.638
>>> numericvalue("GSGFSHSMGKNQQT")
1.381
>>> numericvalue("GPAQHGTSGQNQQT")
1.030
>>> numericvalue("GSGVSTQLLQNQQT")
0.928
>>> numericvalue("GSSQNQQHDMRLRT")
0.669
>>> numericvalue("GIPSIRESGQNQQT")
0.484
>>> numericvalue("GSGQNRAQIGTQQT")
0.776

# lookup: Fold enrichment over AAV9 in the brain of Mice (C57Bl/6) of GSGSSSMSFQNQQT 0.466

Reported Fold enrichment over AAV9 in the brain of Mice (C57Bl/6), sequence GSGAVHLTAQNQQT : ____ 0.541

Looking for the measured Fold enrichment over AAV9 in the brain of Mice (C57Bl/6) of GSGQNQQIGESRMT , can you help? 0.890

# lookup: Fold enrichment over AAV9 in the brain of Mice (C57Bl/6) of GQLVTFTSGQNQQT 0.819

What value of Fold enrichment over AAV9 in the brain of Mice (C57Bl/6) has been reported for the following sequence? GSGQASSKSANQQT 0.500

Fold enrichment over AAV9 in the brain of Mice (C57Bl/6) lookup needed for GSGQRMADIGNQQT , thanks. 0.352

Which Fold enrichment over AAV9 in the brain of Mice (C57Bl/6) reading was recorded for the sequence GSGQSSYGSGNQQT ? 1.161

Recorded Fold enrichment over AAV9 in the brain of Mice (C57Bl/6) for GSGQNQALVSMGQT , please? 0.987

So what's the measured Fold enrichment over AAV9 in the brain of Mice (C57Bl/6) for this one? GSGQTARNGINQQT 1.002

Item under review: GSGQRRELSQNQQT . Reported Fold enrichment over AAV9 in the brain of Mice (C57Bl/6)? 0.622

Dear colleague, I am looking for the recorded Fold enrichment over AAV9 in the brain of Mice (C57Bl/6) of the following sequence: GSGERSISVQNQQT 0.598

What does the data say about its Fold enrichment over AAV9 in the brain of Mice (C57Bl/6)? Entry: GRLSNAHGGQNQQT 1.036

Name the reported Fold enrichment over AAV9 in the brain of Mice (C57Bl/6) value associated with the sequence GSGQSHSLETNQQT 0.520

====

Tested on: brains, heart, liver, muscle, and DRG of the NHPs
Assay: Maturation of TTM-001 and TTM-002 capsids, NGS enrichment in NHP tissues
Type: in vivo
Settings: NGS fold-enrichment, liver DNA of NHPs, relative to AAV9 control
Excerpt: This Example describes maturation of the AAV9 capsid variants, TTM-001 (SEQ ID NO: 981 (amino acid) and 983 (DNA), comprising SEQ ID NO: 941 (encoded by SEQ ID NO: 942)) and TTM-002 (SEQ ID NO: 982 (amino acid) and 984 (DNA), comprising SEQ ID NO: […] (encoded by SEQ ID NO: 944)) in NHPs to further enhance their transduction and biodistribution in the central nervous system as well as other tissues, and evolve the AAV capsid variants to provide further cross-species compatibility. […]
endpoint: Fold Enrichment relative to AAV9, Liver DNA (NHP) (fold)
Give the number; fold is assumed, so skip it.

>>> numericvalue("KTINGSGSPHSKSQSQQI")
0.175
>>> numericvalue("KTINGGGSPHSKAQDKQT")
0.093
>>> numericvalue("KTVNGSGSPHSKAQNQLI")
0.166
>>> numericvalue("KTESTSGSPHSKAQNQQT")
0.176
>>> numericvalue("KVINGSGSPHSKGQNQQT (peptide inserted in AAV capsid)")
0.157
>>> numericvalue("KTINGSGSPHGWVQNQQT")
1.975
>>> numericvalue("KTVNGNGSPHSKAQNKQT")
0.122

Now look at this one.
Could you tell me which Fold Enrichment relative to AAV9, Liver DNA (NHP) is on file for KTIPIDGSPHSKAQNQQT ? 0.936

====

Fold Enrichment relative to AAV9, Liver DNA (NHP) values for the sequences below.
System: brains, heart, liver, muscle, and DRG of the NHPs
Test: Maturation of TTM-001 and TTM-002 capsids, NGS enrichment in NHP tissues
Format: in vivo
Conditions: NHP liver DNA; NGS; relative to AAV9 control
Your answer should be a plain number; it is taken to be in fold.

>>> numericvalue("KTINGSGSPHVYYQNQQT")
2.173

Can you share its Fold Enrichment relative to AAV9, Liver DNA (NHP)? I mean this sequence: KTINGSGSPHSKAQNFKR 0.964

====

Test system: brain
Assay: Maturation of TTM-002 capsid, NGS enrichment in brain of CD-1 Outbred mice
Type: in vivo
Conditions: NGS fold-enrichment in the brain of CD-1 Outbred mice; intravenous, 1.0×10^12 VG/dose, 14 days; RNA; relative to non-matured TTM-002 control
Text: This Example describes maturation of the TTM-001 (SEQ ID NO: 981 (amino acid) and 983 (DNA), comprising SEQ ID NO: 941) and TTM-002 (SEQ ID NO: 982 (amino acid) and 984 (DNA), comprising SEQ ID NO: 2) capsid variants to further enhance their transduction and biodistribution in the central nervous system and evolve the AAV capsid variants to provide further cross-species compatibility. […]
Fold enrichment over TTM-002 by entry:
Answer using only a numeral; do not append any unit.

>>> numericvalue("KANNGQDSPHKSGQNQQT")
2.67
>>> numericvalue("KMEYGHDSPHKSGQNQQT")
2.71
>>> numericvalue("KTINGNYSPHKIGQNQQT")
2.02

Would you kindly share the measured Fold enrichment over TTM-002 for KLEYGHDSPHKSGQNQQT ? 2.33

For the sequence KIEYGHDSPHKSGQNQQT , what Fold enrichment over TTM-002 is on record? 2.41

// returns reported Fold enrichment over TTM-002 for input KAEVGHDSPHKSGQNQQT 2.15

Recorded Fold enrichment over TTM-002 for KRINGHDSPHKSGQKQQN , please? 2.34

Which Fold enrichment over TTM-002 is listed for KIEVGHDSPHKSGQNQQT ? 2.16

Requested read-out: Fold enrichment over TTM-002. Entry: KADYGHDSPHKSGQNQQT 2.40

====

Test system: brain
Experiment: NGS fold enrichment of synthetic library (passage 3) in C57Bl/6 mice, first cross-species screen
Type: in vivo
Conditions: synthetic library passage 3, intravenous, RNA NGS, brain of C57Bl/6 mice, relative to wild-type AAV9
endpoint: Fold enrichment over AAV9 in the brain of Mice (C57Bl/6)
Give the number first and the unit second.

Recorded Fold enrichment over AAV9 in the brain of Mice (C57Bl/6) for GVAGSLVSGQNQQT with brain, please? 1.321 fold

Please tell me: Fold enrichment over AAV9 in the brain of Mice (C57Bl/6) of GNIAGSVSGQNQQT , system brain? 0.446 fold

// lookup Fold enrichment over AAV9 in the brain of Mice (C57Bl/6) | system=brain | key= GSGQARAHRGNQQT 0.254 fold

Value wanted: Fold enrichment over AAV9 in the brain of Mice (C57Bl/6) (brain) of entry GGQVAPSSGQNQQT 1.433 fold

Record GSGFHTDSRQNQQT : what is its Fold enrichment over AAV9 in the brain of Mice (C57Bl/6) with brain? 7.344 fold

# get_value(readout= Fold enrichment over AAV9 in the brain of Mice (C57Bl/6), system= brain) for GAMTVTISGQNQQT 0.443 fold

Request body: readout Fold enrichment over AAV9 in the brain of Mice (C57Bl/6), system brain, query GSGQNQQPNSGSMT . Return the value. 0.588 fold

Request: Fold enrichment over AAV9 in the brain of Mice (C57Bl/6), test system brain, entry GSGQNQHHSVSQQT 0.605 fold

So what Fold enrichment over AAV9 in the brain of Mice (C57Bl/6) did GVVAAHNSGQNQQT get with brain? 1.196 fold

I'm curious: which Fold enrichment over AAV9 in the brain of Mice (C57Bl/6) was measured for GSEYGHKSGQNQQT tested on brain? 5.198 fold

Request - read-out Fold enrichment over AAV9 in the brain of Mice (C57Bl/6) | tested on brain | sequence GGLSHVMSGQNQQT 0.885 fold

Please state recorded Fold enrichment over AAV9 in the brain of Mice (C57Bl/6) (tested on brain) of GIFMQTPSGQNQQT 0.938 fold

Param readout = Fold enrichment over AAV9 in the brain of Mice (C57Bl/6); param system = brain; param query = GSGQNQQTALEKSL ; response: value 0.625 fold

Each recorded value in this set is attributed to patent US20260250318A1.
